Target entity: Adenosine receptor A3 (Homo sapiens)
Sequence (P0DMS8 whole entry): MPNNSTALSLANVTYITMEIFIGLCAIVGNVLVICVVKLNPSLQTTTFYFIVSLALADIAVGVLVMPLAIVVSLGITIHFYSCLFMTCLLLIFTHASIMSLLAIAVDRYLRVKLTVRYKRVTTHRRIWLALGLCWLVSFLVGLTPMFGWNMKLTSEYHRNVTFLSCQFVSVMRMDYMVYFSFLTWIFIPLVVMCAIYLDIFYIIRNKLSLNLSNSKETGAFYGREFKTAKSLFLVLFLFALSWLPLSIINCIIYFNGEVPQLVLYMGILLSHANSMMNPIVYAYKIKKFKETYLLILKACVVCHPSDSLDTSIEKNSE
Reported metric: pKi
// pKi: -log10(molar conc.)

Write down the reported pKi of Nc1nc2ccc(Cl)cc2c2nc(-c3ccco3)nn12 , test system: Adenosine receptor A3 (Homo sapiens).
7.29
